B1: CPOX (parent)
chain: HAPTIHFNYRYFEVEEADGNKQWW

# Variants of: B1
# Test Method Notes: protein stability index of a GFP-peptide fusion (GPS, HEK-293T) (PSI 1-6); higher = more stable;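 further: lentivirally expressed fusions sorted by FACS into six bins by GFP to DsRed ratio, PSI derived from sequencing read proportions per bin multiplied by bin number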
# Protocol Conditions: c terminus: a fixed tail appended
Short version: protein stability index at least 2 is label 1, less is label 0.

Below are worked cases with known answers.
V14P | label 1
E16Y | label 0
G19Q | label 1

input: Evaluate "F7A" : protein stability index at minimum 2?
output: label 1

input: Can "F7N" be said to have protein stability index at or above 2?
output: label 1

input: Has "A2H" a recorded protein stability index greater than or equal to 2?
output: label 1

input: Hello, I need to know if "Q22N" has measured protein stability index not below 2. Thanks!
output: label 1

input: Quick check: does "Y9R" have protein stability index greater than or equal to 2?
output: label 1
